B1: minF1; the commonest letter at each place (parent)
chain: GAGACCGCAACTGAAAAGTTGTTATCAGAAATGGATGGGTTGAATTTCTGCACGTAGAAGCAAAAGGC

- Variants of: B1
- assay: fraction ligated after 30 min (ligated reads / total reads); higher = more ligase activity
- condition_set: with F1*subA RNA substrate (template-directed ligation), 42 °C
Label 1.0 when fraction ligated >= 0.3; otherwise 0.0.

Is it the case that A35G A43G has fraction ligated reaching or exceeding 0.3? 0.0

Does the reported fraction ligated for A27T A29C fall at or above the 0.3 mark? 1.0

Decide: fraction ligated of G33A A43G >= 0.3? 0.0

Is reported fraction ligated greater than or equal to 0.3 here: T23A A24G 0.0

Say whether A29C A30T shows fraction ligated of 0.3 or more. 1.0

// inclusive: fraction ligated at least 0.3? input: A29G T36G 0.0

Identify whether the reported fraction ligated of the following variant is 0.3 or greater: T36G G37A 0.0

Is the recorded value of fraction ligated equal to or greater than 0.3 for this variant? C26A A35C 0.0

Decide: fraction ligated of T25G G33T >= 0.3? 0.0

Is reported fraction ligated greater than or equal to 0.3 here: A35C G37T 0.0

Does the reported fraction ligated for T32C A35T fall at or above the 0.3 mark? 0.0

Quick check, fraction ligated >= 0.3? G42T A44T 0.0

For this variant, is measured fraction ligated 0.3 or higher? A24C G34A 0.0

Is it the case that T23C A35G has fraction ligated reaching or exceeding 0.3? 0.0

// inclusive: fraction ligated at least 0.3? input: A29C A44G 1.0

Could you verify whether the entry G33A A35G shows fraction ligated of no less than 0.3? 0.0

Hi team, for A31G G37T , is the recorded fraction ligated at or above 0.3? 0.0

Reported fraction ligated reaches at least 0.3 for A30C G33C ? 1.0

Is it the case that C26T A31C has fraction ligated reaching or exceeding 0.3? 1.0

Determine whether this variant has fraction ligated no lower than 0.3: T23G A29T 1.0

Check the entry G28C T36C : does fraction ligated equal or exceed 0.3? 0.0

Exam item: decide whether the reported fraction ligated for A35G A43T is at least 0.3. 0.0
